Please provide measured PBM binding z-score for the entries that follow.
# Tested on: LXRa homodimer (NR concentration 270 nM)
# Assay Comment: PBM binding z-score (relative to random genomic background probes); higher = stronger binding; sequences stand for … in GC…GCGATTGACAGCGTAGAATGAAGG

A selection of reference data follows.
[
  {
    "Seq Text": "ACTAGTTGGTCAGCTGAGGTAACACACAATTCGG",
    "Measured Quantity": "PBM binding z-score",
    "Assay Value": 0.00608
  },
  {
    "Seq Text": "CCAGACAGGTGAAAGGTCACTCAGTCTGGTACGC",
    "Measured Quantity": "PBM binding z-score",
    "Assay Value": 2.57
  },
  {
    "Seq Text": "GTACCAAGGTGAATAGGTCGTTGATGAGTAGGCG",
    "Measured Quantity": "PBM binding z-score",
    "Assay Value": -0.075
  },
  {
    "Seq Text": "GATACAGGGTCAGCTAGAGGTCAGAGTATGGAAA",
    "Measured Quantity": "PBM binding z-score",
    "Assay Value": 3.45
  },
  {
    "Seq Text": "CCTCGGAGGACAACAGGATGTCAGAGCTGCCAGA",
    "Measured Quantity": "PBM binding z-score",
    "Assay Value": -0.316
  },
  {
    "Seq Text": "CCTTACGGGTCAGGGTTATAGCACGGGTGGTACG",
    "Measured Quantity": "PBM binding z-score",
    "Assay Value": -0.256
  },
  {
    "Seq Text": "AATACAGGGTCACTAGGTCAGAGTAGGTACGAAT",
    "Measured Quantity": "PBM binding z-score",
    "Assay Value": 2.22
  }
]

Proceed to the following item.
Request the reported PBM binding z-score associated with CCTGCTAGGTCAATGGTCAGCTAAAGCAGCTCGC
-0.22
